Biological target: E. coli RecQ helicase (Escherichia coli, UniProt P15043)
Sequence (P15043 2-609): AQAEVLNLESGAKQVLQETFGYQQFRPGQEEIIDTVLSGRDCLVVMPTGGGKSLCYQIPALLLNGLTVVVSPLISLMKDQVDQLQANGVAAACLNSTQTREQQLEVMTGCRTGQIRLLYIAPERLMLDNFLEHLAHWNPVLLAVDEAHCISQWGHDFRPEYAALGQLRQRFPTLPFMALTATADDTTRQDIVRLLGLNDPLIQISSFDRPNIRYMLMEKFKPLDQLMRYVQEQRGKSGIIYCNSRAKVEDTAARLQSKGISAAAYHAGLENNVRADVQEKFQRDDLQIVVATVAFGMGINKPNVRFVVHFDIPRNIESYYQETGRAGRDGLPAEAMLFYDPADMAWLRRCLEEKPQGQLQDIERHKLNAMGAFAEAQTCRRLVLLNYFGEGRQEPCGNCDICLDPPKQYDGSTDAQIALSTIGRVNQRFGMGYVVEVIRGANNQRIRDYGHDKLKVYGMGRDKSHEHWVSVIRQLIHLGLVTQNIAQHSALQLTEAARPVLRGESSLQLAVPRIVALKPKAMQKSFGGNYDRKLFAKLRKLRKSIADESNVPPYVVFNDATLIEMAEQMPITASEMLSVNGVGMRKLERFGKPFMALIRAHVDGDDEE
Experiment: stopped-flow FRET binding kinetics (k-1/k1)
Conditions: read-out: DNA-free RecQ
outcome-measure: pKd
Schema: pKd number; meaning minus log10 of the concentration expressed in molar units.

Summary line: CNc1ccccc1C(=O)O[C@H]1C[C@H](n2cnc3c(N)ncnc32)O[C@@H]1COP(=O)(O)OP(=O)(O)OP(=O)(O)O , E. coli RecQ helicase (Escherichia coli, UniProt P15043), reported pKd = 4.82

====

Molecular target: UniProt P15043
Experiment: quenched-flow ATP hydrolysis, global fit
Assay type: biochemical
Conditions: SF50 buffer pH 7.5, 5 mM MgCl2, 50 mM NaCl, 25 °C; gamma-32P-ATP; read-out: DNA-free RecQ
outcome-measure: pKd
Schema: pKd number; meaning minus log10 of the concentration expressed in molar units.

Form: molecule = Nc1ncnc2c1ncn2[C@@H]1O[C@H](COP(=O)(O)OP(=O)(O)OP(=O)(O)O)[C@@H](O)[C@H]1O ; pKd = 3.92

Measured values drawn from paper PMC4333385 for this set.
